- System: HCV Replicon IB
- Measurement protocol: HCV replicon assay in Huh-7 cells, genotype 1b (Rluc luciferase readout)
- Format: cell-based, hepatitis C virus
- Stated conditions: Hepatitis C virus, Huh-7, 72 h, HCV1B replicon, Huh-7 cells, 3 days; read-out: EC50_HCV1B_
Endpoint: EC50 (µM)
The answer is to be given in µM; state only the numeric part.

Reference set, count: 5
[[record]]
substance_smiles = "CC(C)(C)c1cc(C2CC2)cc2c(N)cc(-c3nnc(NCC(F)(F)F)o3)nc12"
measured = 0.56

[[record]]
substance_smiles = "Cc1cc(-c2nnc(N[C@H]3C[C@@H](OP(=O)(O)O)C3)o2)nc2c(C(C)(C)C)cc(OCC(F)(F)F)cc12"
measured = 0.00124

[[record]]
substance_smiles = "CC(C)(C)c1cc(C2CC2)cc2c(N)cc(C(=O)NC[C@@H]3CSCN3)nc12"
measured = 0.00445

[[record]]
substance_smiles = "CCCCNC(=O)[C@@H]1CSC(c2cc(C)c3cc(OC(F)F)cc(C(F)(F)F)c3n2)=N1"
measured = 3.91

[[record]]
substance_smiles = "CC(=O)c1cc(C2CC2)cc2c(C)cc(-c3nnc(NCC4OCCO4)o3)nc12"
measured = 0.0186


# EC50 of Cc1cc(-c2nnc(NCC3OCCO3)o2)nc2c(C(C)(C)F)cc(C3CC3)cc12 = 0.00748

# EC50 of CCCCCCNc1nnc(-c2cc(C)c3cc(C4CC4)cc(C(F)(F)F)c3n2)o1 = 0.145
